# Tested On: BCDIN3D (Homo sapiens)
# Sequence (Q7Z5W3 whole entry): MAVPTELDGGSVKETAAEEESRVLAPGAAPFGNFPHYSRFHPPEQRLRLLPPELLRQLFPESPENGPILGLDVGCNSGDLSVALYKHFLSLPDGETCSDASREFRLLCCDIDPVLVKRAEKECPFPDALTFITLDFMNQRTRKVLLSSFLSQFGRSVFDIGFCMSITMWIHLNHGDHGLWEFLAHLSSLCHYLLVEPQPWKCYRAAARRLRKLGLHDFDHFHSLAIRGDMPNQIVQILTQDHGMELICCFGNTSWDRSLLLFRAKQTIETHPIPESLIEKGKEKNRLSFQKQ
# Experiment Description: BCDIN3D IC50 RFMS (RapidFire) assay with mini-helix
# Assay type: biochemical
# Condition Set: mini-helix substrate 0.2 μM, SAM 6 μM, 25 nM enzyme
Quantity: log10 of IC50 (log10 of the value in µM)
Hi team, quick reminder: these entries are log10 of IC50 (µM).

Measured log10 of IC50, Cc1ccc(CNc2nc(NCC(N)c3cccnc3)nc3c2cnn3C)cc1Cl (stereo not drawn) [Compound 5.07] : -0.87

For Cn1ncc2c(NC3CC4(CC4)C3)nc(NC[C@H](N)c3ccccc3)nc21 [Compound 4.119] the compound record lists log10 of IC50 as -1.62

Recorded log10 of IC50 (compound Cn1ncc2c(NCC(F)F)nc(NC[C@H](N)c3ccccc3)nc21 [Compound 4.73] ): -0.28

Cn1ncc2c(NC3CC(C)(F)C3)nc(NC[C@H](N)c3ccccc3)nc21 (stereo partly drawn) [Compound 4.97] has a reported log10 of IC50 of -1.07

log10 of IC50 reading for Cn1ncc2c(Nc3ccc(C(F)(F)F)cc3)nc(NCC(N)C3CC3)nc21 (stereo not drawn) [Compound 3.13] : -0.74

For Cn1ncc2c(NC3CC(F)(F)C3)nc(NCC(N)c3ccncc3)nc21 (stereo not drawn) [Compound 5.27] the compound record lists log10 of IC50 as 0.45
